Hello, the source for this data is patent US6514486B1, in case you need it.

Listed next: entries and their corresponding pIC50.
System: coculture of keratinocytes and of melanocytes
Protocol notes: depigmenting activity test: inhibition of melanogenesis on a coculture of keratinocytes and of melanocytes
Assay type: cell-based
Condition info: coculture of keratinocytes and melanocytes; read-out: IC50 (concentration at which 50% inhibition of melanogenesis is observed)
Reminder that pIC50 means the negative base-10 logarithm of the concentration expressed in mol/L.

{"columns": ["Structure", "Recorded measurement"],
 "data": [
  ["CN(C)C=Nc1ccc(O)cc1", 3.70]
]}

Ask: // returns reported pIC50 for input `O=c1cc(CO)occ1O`
Reply: 3.30
